TARGET_UNDER_TEST: T1, Rnd1 GTPase (residues 5-200), loaded with GMPPNP (UniProt Q92730 5-200)
T1 sequence (looked up): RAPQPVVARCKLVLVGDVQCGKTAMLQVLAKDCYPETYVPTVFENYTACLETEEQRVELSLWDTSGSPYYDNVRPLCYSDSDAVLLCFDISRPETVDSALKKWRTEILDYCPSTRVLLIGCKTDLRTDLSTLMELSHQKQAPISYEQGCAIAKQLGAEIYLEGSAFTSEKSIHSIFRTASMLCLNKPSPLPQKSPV
ASSAY_TEXT: ITC
pKd: −log10 of the molar value.
PROPERTY_NAME: pKd

Here are 3 binders together with their reported answers.
plexin-A2 Rho GTPase binding domain (RBD), residues 1490-1600 (domain or fragment, human, UniProt O75051 1490-1600, looked up) LIRQQIEYKTLILNCVNPDNENSPEIPVKVLNCDTITQVKEKILDAVYKNVPYSQRPRAVDMDLEWRQGRIARVVLQDEDITTKIEGDWKRLNTLMHYQVSDRSVVALVPK : 5.15
plexin-B1 Rho GTPase binding domain (RBD), residues 1746-1852 (domain or fragment, human, UniProt O43157 1746-1852, looked up) YRPLTLNALLAVGPGAGEAQGVPVKVLDCDTISQAKEKMLDQLYKGVPLTQRPDPRTLDVEWRSGVAGHLILSDEDVTSEVQGLWRRLNTLQHYKVPDGATVALVPC : 5.26
plexin-B1 RBD L1815Y (domain or fragment) YRPLTLNALLAVGPGAGEAQGVPVKVLDCDTISQAKEKMLDQLYKGVPLTQRPDPRTLDVEWRSGVAGHYILSDEDVTSEVQGLWRRLNTLQHYKVPDGATVALVPC : 4.85

(I) plexin-D1 RBD S1614V/T1615A (domain or fragment) AKPRNLNVSFQGCGMDSLSVRAMDTDTLTQVKEKILEAFCKNVPYSQWPRAEDVDLEWFASVAQSYILRDLDDTSVVEDGRKKLNTLAHYKIPEGASLAMSLIDKKDNTLGRVKDLDTEKYFHLVL
(II) plexin-D1 RBD Y1618L (domain or fragment) AKPRNLNVSFQGCGMDSLSVRAMDTDTLTQVKEKILEAFCKNVPYSQWPRAEDVDLEWFASSTQSLILRDLDDTSVVEDGRKKLNTLAHYKIPEGASLAMSLIDKKDNTLGRVKDLDTEKYFHLVL
(III) plexin-C1 RBD K1267L (domain or fragment) TVALNVVFEKIPENESADVCRNISVNVLDCDTIGQAKEKIFQAFLSKNGSPYGLQLNEIGLELQMGTRQLELLDIDSSSVILEDGITKLNTIGHYEISNGSTIKVFKK
(IV) plexin-C1 RBD T1264V/R1265V (domain or fragment) TVALNVVFEKIPENESADVCRNISVNVLDCDTIGQAKEKIFQAFLSKNGSPYGLQLNEIGLELQMGVVQKELLDIDSSSVILEDGITKLNTIGHYEISNGSTIKVFKK
Query: Your job: order these 4 records by pKd, ascending. To answer, arrange all of the labels according to the requested order.
Result: I, III, II, IV
